# Experimental Protocol: Solubility analysis in water and media of different pH, HPLC
# Type: physicochemical
# Experimental Parameters: water-soluble medium of pH 5.5, 37 °C, pH 5.5, aqueous buffer, thermodynamic from solid, pH = 5.5, 37° C.±1° C.; read-out: Concentration
Quantity: solubility thermodynamic (µg/mL)

INSERT INTO assay_data (compound, unit_abbreviation, measured_result) VALUES
  ('Cc1cncc(CN2CCC(=C3c4ccccc4CC(=O)c4sccc43)CC2)c1.O=C(O)/C=C/C(=O)O [Crystalline form B]', 'µg/mL', 180);
